TARGET_OR_TEST_SYSTEM: Diacylglycerol lipase-alpha (Mus musculus, UniProt Q6WQJ1)
Sequence (Q6WQJ1 whole entry): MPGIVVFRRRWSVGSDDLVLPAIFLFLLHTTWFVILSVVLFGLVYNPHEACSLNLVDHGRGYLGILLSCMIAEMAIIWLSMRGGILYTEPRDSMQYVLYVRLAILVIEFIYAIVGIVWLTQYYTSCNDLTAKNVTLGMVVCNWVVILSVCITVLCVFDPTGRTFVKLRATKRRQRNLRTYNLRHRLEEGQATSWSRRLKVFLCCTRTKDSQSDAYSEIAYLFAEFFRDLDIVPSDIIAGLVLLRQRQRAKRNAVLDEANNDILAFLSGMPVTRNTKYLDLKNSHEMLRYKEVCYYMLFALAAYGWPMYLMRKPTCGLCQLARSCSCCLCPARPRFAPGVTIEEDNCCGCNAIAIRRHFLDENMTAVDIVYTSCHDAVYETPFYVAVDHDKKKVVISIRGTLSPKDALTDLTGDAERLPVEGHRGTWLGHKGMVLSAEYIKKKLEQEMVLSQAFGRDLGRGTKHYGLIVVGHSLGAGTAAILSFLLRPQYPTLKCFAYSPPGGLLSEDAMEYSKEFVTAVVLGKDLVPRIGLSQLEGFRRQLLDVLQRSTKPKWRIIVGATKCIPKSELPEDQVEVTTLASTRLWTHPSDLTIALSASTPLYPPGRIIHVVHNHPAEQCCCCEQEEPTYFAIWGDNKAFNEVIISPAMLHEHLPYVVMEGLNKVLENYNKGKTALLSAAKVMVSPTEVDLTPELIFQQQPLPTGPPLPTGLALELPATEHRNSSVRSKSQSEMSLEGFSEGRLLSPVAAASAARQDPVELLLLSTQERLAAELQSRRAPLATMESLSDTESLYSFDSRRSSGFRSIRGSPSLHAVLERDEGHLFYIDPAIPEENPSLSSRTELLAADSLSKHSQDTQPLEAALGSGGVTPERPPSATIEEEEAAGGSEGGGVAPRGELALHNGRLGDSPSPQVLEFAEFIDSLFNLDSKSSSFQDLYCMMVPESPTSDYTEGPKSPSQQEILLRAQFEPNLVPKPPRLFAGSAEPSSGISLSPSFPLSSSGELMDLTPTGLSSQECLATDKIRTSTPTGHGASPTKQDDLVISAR
Listing: IC50 of selected molecules
READOUT_NAME: IC50 (nM)

[
  {
    "SUBSTANCE_SMILES": "CC1(C)CCc2cc(S(=O)(=O)N(CC(=O)O)Cc3ccc(Oc4ccccc4)cc3)ccc2O1",
    "RESULT_VALUE": 124
  },
  {
    "SUBSTANCE_SMILES": "CC1(C)CCc2cc(S(=O)(=O)N(CC(=O)O)Cc3cccc(Oc4ccccc4)c3)ccc2O1",
    "RESULT_VALUE": 355
  }
]

All values here come from ChEMBL document CHEMBL3352769.
